System: Escherichia coli TOP10
Experiment: shrunken log2 fold change of peptide-encoding DNA abundance (4.5 h post-induction vs induction); higher = less antimicrobial activity (less host growth inhibition)
Conditions: time post-induction: 4.5 h; library: site-saturation at positions 5, 18, 19, 20
Quick reference for shrunken log2 fold change among some sequences
property_measured: shrunken log2 fold change

>>> print(df.to_string())
             input_sequence         target_of_assay          property_measured  observed_result
 0  RRIRERPPRLPRPRPRPRWYPRP  Escherichia coli TOP10  shrunken log2 fold change           -0.464
 1  RRIRLRPPRLPRPRPRPEHQPRP  Escherichia coli TOP10  shrunken log2 fold change          -0.0896
 2  RRIRSRPPRLPRPRPRPRICPRP  Escherichia coli TOP10  shrunken log2 fold change           -0.191
 3  RRIRVRPPRLPRPRPRPHVSPRP  Escherichia coli TOP10  shrunken log2 fold change            0.108
 4  RRIRIRPPRLPRPRPRPYERPRP  Escherichia coli TOP10  shrunken log2 fold change           -0.023
 5  RRIRLRPPRLPRPRPRPQTFPRP  Escherichia coli TOP10  shrunken log2 fold change           -0.118
 6  RRIRPRPPRLPRPRPRPCKKPRP  Escherichia coli TOP10  shrunken log2 fold change          -0.0659
 7  RRIRYRPPRLPRPRPRPRCGPRP  Escherichia coli TOP10  shrunken log2 fold change          -0.0223
 8  RRIRARPPRLPRPRPRPGRKPRP  Escherichia coli TOP10  shrunken log2 fold change             0.43
 9  RRIRPRPPRLPRPRPRPLYNPRP  Escherichia coli TOP10  shrunken log2 fold change           -0.623
10  RRIRLRPPRLPRPRPRPTHEPRP  Escherichia coli TOP10  shrunken log2 fold change            0.361
11  RRIRQRPPRLPRPRPRPELDPRP  Escherichia coli TOP10  shrunken log2 fold change           0.0346
12  RRIRSRPPRLPRPRPRPINKPRP  Escherichia coli TOP10  shrunken log2 fold change           -0.641
13  RRIRHRPPRLPRPRPRPNDKPRP  Escherichia coli TOP10  shrunken log2 fold change           -0.526
14  RRIRGRPPRLPRPRPRPHLDPRP  Escherichia coli TOP10  shrunken log2 fold change             0.34

----------
Quick reference for shrunken log2 fold change among some sequences
System: Escherichia coli TOP10;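 also: peptides expressed intracellularly from a pBAD plasmid library in pooled LB shake-flask culture, induced with 0.3% L-arabinose, DNA abundance read by NGS, three biological replicates, DESeq2 with apeglm shrinkage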
Assay: shrunken log2 fold change of peptide-encoding DNA abundance (4.5 h post-induction vs induction); higher = less antimicrobial activity (less host growth inhibition)
Details: time post-induction: 4.5 h; library: site-saturation at positions 5, 18, 19, 20
property_measured: shrunken log2 fold change

In [3]: df
Out[3]:
             input_sequence  observed_result
 0  RRIRRRPPRLPRPRPRPAYMPRP           0.0857
 1  RRIRARPPRLPRPRPRPRPVPRP            0.771
 2  RRIRPRPPRLPRPRPRPFYPPRP           -0.854
 3  RRIRQRPPRLPRPRPRPDMRPRP           0.0308
 4  RRIRSRPPRLPRPRPRPHDIPRP          -0.0108
 5  RRIRERPPRLPRPRPRPDHTPRP          -0.0309
 6  RRIRPRPPRLPRPRPRPPEKPRP            0.544
 7  RRIRGRPPRLPRPRPRPCSDPRP           0.0118
 8  RRIRMRPPRLPRPRPRPYLMPRP           -0.357
 9  RRIRHRPPRLPRPRPRPAHCPRP            0.115
10  RRIRVRPPRLPRPRPRPCNQPRP           0.0169
11  RRIRGRPPRLPRPRPRPFPCPRP          -0.0294
12  RRIRIRPPRLPRPRPRPFSEPRP           -0.315
13  RRIRYRPPRLPRPRPRPQWSPRP          -0.0453
14  RRIRQRPPRLPRPRPRPCARPRP          -0.0014

The reported measurements were obtained from the supplement of paper PMC9112550.
